experiment: Lipid concentration and pharmacokinetics in the liver of mice after intravenous administration; type: in vivo; conditions: mouse, male C57BL mice, lipid dose 0.3 mg/kg
Value type: AUC (µg·h/mL)

A. CCCCCC/C=C\COC(=O)CCCCCCCC(CCCCCCCC(=O)OC/C=C\CCCCCC)OC(=O)CCCN(C)C
B. CCCCC/C=C\C/C=C\CCCCCCCCOCC(CN(C)C)OCCCCCCCC/C=C\C/C=C\CCCCC (stereo not drawn) [Reference Lipid, reference compound]
C. CCOC(=O)CCCC/C=C\CCCCCCCCC(CCCCCCCC/C=C\CCCCC(=O)OCC)OC(=O)CCCN(C)C
// query Rank the items in ascending order with respect to AUC. Write the labels out in the order the request specifies.
// result C, A, B
(C: 0.436 µg·h/mL, A: 4.59 µg·h/mL, B: 6950 µg·h/mL)

* * *

assay: Lipid concentration and pharmacokinetics in the spleen of mice after intravenous administration; type: in vivo; conditions: mouse, male C57BL mice, lipid dose 0.3 mg/kg
Value type: Cmax (ng/mL)

{"Compound": "CCCCCC/C=C\\COC(=O)CCCCCCCC(CCCCCCCC(=O)OC/C=C\\CCCCCC)OC(=O)CCCN(C)C", "Cmax, ng/mL": 7460}

1. CCOC(=O)CCCC/C=C\CCCCCCCCC(CCCCCCCC/C=C\CCCCC(=O)OCC)OC(=O)CCCN(C)C
2. CCCCC/C=C\C/C=C\CCCCCCCCOCC(CN(C)C)OCCCCCCCC/C=C\C/C=C\CCCCC (stereo not shown) [Reference Lipid, reference compound]
3. COC(=O)CCCCCCC/C=C\CCCCCCCCC(CCCCCCCC/C=C\CCCCCCCC(=O)OC)OC(=O)CCCN(C)C
// query Hey, quick one: sort these by Cmax, largest value first please. Write the labels out in the order the request specifies.
// result 1, 2, 3

* * *

Test: Lipid concentration and pharmacokinetics in the spleen of mice after intravenous administration
Assay type: in vivo
Details: mouse, male C57BL mice, lipid dose 0.3 mg/kg, read-out: MRT0-t (mean residence time)
Description: A study was conducted to determine the lipid profile and tissue clearance in mice for cationic lipids according to the present invention. Male mice (C57BL, 20-30 g) were separated into four groups and administered (intravenously) either Compound 1, 2 or 3 of the present invention, or a Reference Lipid, as shown below in Table 20. The mice were not fasted. Blood, liver and spleen samples were collected (two samples per time point per group) at 0.17, 8, 24, 72, 168, 336 and 672 hours post dose.
Value type: MRT last (h)

{"Compound": "CCOC(=O)CCCC/C=C\\CCCCCCCCC(CCCCCCCC/C=C\\CCCCC(=O)OCC)OC(=O)CCCN(C)C", "Unit abbreviation": "h", "MRT last": 11.1}
{"Compound": "CCCCC/C=C\\C/C=C\\CCCCCCCCOCC(CN(C)C)OCCCCCCCC/C=C\\C/C=C\\CCCCC (stereo not shown) [Reference Lipid, reference compound]", "Unit abbreviation": "h", "MRT last": 230}

a. COC(=O)CCCCCCC/C=C\CCCCCCCCC(CCCCCCCC/C=C\CCCCCCCC(=O)OC)OC(=O)CCCN(C)C
b. CCCCCC/C=C\COC(=O)CCCCCCCC(CCCCCCCC(=O)OC/C=C\CCCCCC)OC(=O)CCCN(C)C
// query // select label with min value of measured MRT last from [ a , b ] Select an item and report its label.
// result a
(a: 0.7 h, b: 2.8 h)

* * *

Assay: Lipid concentration and pharmacokinetics in the plasma of mice after intravenous administration
Assay type: in vivo
Details: mouse, male C57BL mice, lipid dose 0.3 mg/kg, read-out: MRT0-t (mean residence time)
Method: A study was conducted to determine the lipid profile and tissue clearance in mice for cationic lipids according to the present invention. Male mice (C57BL, 20-30 g) were separated into four groups and administered (intravenously) either Compound 1, 2 or 3 of the present invention, or a Reference Lipid, as shown below in Table 20. The mice were not fasted. Blood, liver and spleen samples were collected (two samples per time point per group) at 0.17, 8, 24, 72, 168, 336 and 672 hours post dose.
Value type: MRT last (h)
Write it as a number; the unit h goes unstated.

// query State the recorded MRT last for this entry: CCCCC/C=C\C/C=C\CCCCCCCCOCC(CN(C)C)OCCCCCCCC/C=C\C/C=C\CCCCC (stereo not shown) [Reference Lipid, reference compound]
// result 201

* * *

assay: Lipid concentration and pharmacokinetics in the plasma of mice after intravenous administration; type: in vivo; details: mouse, male C57BL mice, lipid dose 0.3 mg/kg
Value type: Cmax (ng/mL)

{"Molecule": "COC(=O)CCCCCCC/C=C\\CCCCCCCCC(CCCCCCCC/C=C\\CCCCCCCC(=O)OC)OC(=O)CCCN(C)C", "Unit abbreviation": "ng/mL", "Cmax": 30600}
{"Molecule": "CCOC(=O)CCCC/C=C\\CCCCCCCCC(CCCCCCCC/C=C\\CCCCC(=O)OCC)OC(=O)CCCN(C)C", "Unit abbreviation": "ng/mL", "Cmax": 28800}

P. CCCCCC/C=C\COC(=O)CCCCCCCC(CCCCCCCC(=O)OC/C=C\CCCCCC)OC(=O)CCCN(C)C
Q. CCCCC/C=C\C/C=C\CCCCCCCCOCC(CN(C)C)OCCCCCCCC/C=C\C/C=C\CCCCC (stereo not shown) [Reference Lipid, reference compound]
// query // select label with min value of measured Cmax from [ P , Q ] Select an item and report its label.
// result Q
(Q: 2110 ng/mL, P: 38800 ng/mL)

* * *

assay: Lipid concentration and pharmacokinetics in the liver of mice after intravenous administration; type: in vivo; details: mouse, male C57BL mice, lipid dose 0.3 mg/kg
Value type: Cmax (ng/mL)

I. COC(=O)CCCCCCC/C=C\CCCCCCCCC(CCCCCCCC/C=C\CCCCCCCC(=O)OC)OC(=O)CCCN(C)C
II. CCCCCC/C=C\COC(=O)CCCCCCCC(CCCCCCCC(=O)OC/C=C\CCCCCC)OC(=O)CCCN(C)C
III. CCCCC/C=C\C/C=C\CCCCCCCCOCC(CN(C)C)OCCCCCCCC/C=C\C/C=C\CCCCC (stereo not shown) [Reference Lipid, reference compound]
IV. CCOC(=O)CCCC/C=C\CCCCCCCCC(CCCCCCCC/C=C\CCCCC(=O)OCC)OC(=O)CCCN(C)C
// query List the molecules shown above again, sorted by falling Cmax values. Write the labels out in the order the request specifies.
// result III, II, I, IV
